Structures can show the parent of a compound that is named as a salt.
OBSERVABLE: melting point

> print(dat)
                                   compound         result
1  CS(=O)(=O)c1cccc(C2CCN(CCC3OCCO3)CC2)c1F (as salt: hydrochloric acid salt) [Example 26]  224 to 225 °C
2  CCCN1CCN(c2cccc(S(C)(=O)=O)c2F)CC1 (as salt: hydrochloric acid salt)  241 to 243 °C
3  CCN1CCC(c2cccc(S(C)(=O)=O)c2Cl)CC1 (as salt: hydrochloride) [Example 28]  264 to 265 °C
4  CCN1CCC(c2cccc(S(=O)(=O)N(C)C)c2F)CC1 (as salt: fumaric acid salt)  151 to 152 °C

---

Counter-ions that a name gives are not always drawn.
OBSERVABLE: melting point

> print(dat)
                                   compound         result
1  CCCN1CCC(c2cccc(C(F)(F)F)c2O)CC1 (as salt: hydrochloric acid salt) [Example 29]  218 to 220 °C
2  OCCCN1CCC(c2cccc(C(F)(F)F)c2F)CC1 (as salt: hydrochloric acid salt) [Example 32]  259 to 261 °C
3  CCCN1CCC(c2cccc(C(F)(F)F)c2OC)CC1 (as salt: hydrochloric acid salt) [Example 8]       235.5 °C
4  CCCN1CCC(c2cccc(OC(F)(F)F)c2O)CC1 (as salt: hydrochloric acid salt) [Example 30]  203 to 205 °C
5  CCCN1CCC(c2cccc(C#N)c2C(F)(F)F)CC1 (as salt: hydrochloric acid salt) [Example 13]  266 to 269 °C
6             CCN1CCC(c2cccc(C(C)=O)c2F)CC1  199 to 202 °C

---

Structures can show the parent of a compound that is named as a salt.
OBSERVABLE: melting point

> print(dat)
                                   compound         result
1  CCCN1CCC(c2cccc(S(C)(=O)=O)c2Cl)CC1 (as salt: hydrochloric acid salt)  250 to 252 °C
2  C=CCN1CCC(c2cccc(C(F)(F)F)c2F)CC1 (as salt: hydrochloric acid salt)  224 to 226 °C
3  COCCN1CCC(c2cccc(C(F)(F)F)c2F)CC1 (as salt: hydrochloric acid salt)  180 to 181 °C
4  OCCN1CCC(c2cccc(C(F)(F)F)c2F)CC1 (as salt: hydrochloric acid salt)  224 to 226 °C

---

Assay: Oral bioavailability in rat
Type: in vivo
Details: plasma, 12.5 umol/kg, orally 12.5 μmol/kg vs intravenously 5 μmol/kg, ratio of AUC
Experimental: Experiments are performed 24 hours after implantation of arterial and venous catheters. Test compound is administered orally at 12.5 μmol/kg or intravenously at 5 μmol/kg using the venous catheters, n=3 per group. […] The oral bioavailability was calculated as the ratio of the AUC (Area under curve) obtained after oral administration over the AUC obtained after intravenous administration for each rat. The parameter AUC was calculated according to the following: […]
OBSERVABLE: bioavailability (%)

> print(dat)
                                   compound  result.unit  numeric.readout
1  CCCN1CCC(c2cccc(C(F)(F)F)c2C#N)CC1 [Example 7]            %               29
2  CCN1CCC(c2cccc(S(C)(=O)=O)c2F)CC1 [Example 2]            %               87

Values from patent US8314126B2
